apparent KD of MS2 coat protein: recorded values
system: MS2 coat protein; test: apparent KD of MS2 coat protein, switch OFF state (with FMN for OFF switches, without FMN for ON switches); designed switch direction (-1 OFF switch, 1 ON switch): 1; higher = weaker reporter binding; settings: FMN input: 0 or 200 uM; Eterna round: R93 (includes R88 designs)

- primary.sequence: "AAAUAUAAAGACUAGGAUAUACUAAAAUAAACAUGAGGAUCACCCAUGUAAAAAAUAAAACUCAUGUAGAAGGAGUAAAUAUAAA [ss2 10th]"
  apparent KD of MS2 coat protein [nM]: 15.5
- primary.sequence: "AAGAAACAUGAGGAUCACCCAUGUAAGAUAAACACAGGAUAUGCGAAAAUAAAUAAAUAAGCAGAAGGGUGAAAAG [Mat - Same State 1 - Tesla mod - 75]"
  apparent KD of MS2 coat protein [nM]: 32.4
- primary.sequence: "AGCGAACAUGAGGAUCACCCAUGUGAAAAACAUAGAGGAUAUGUCGCAUGCGUGUAAAAGACAGAAGGCUAUCGCG [Mat - Mod of Nando]"
  apparent KD of MS2 coat protein [nM]: 52.1
